- tested_target: T1, neuropilin-1 (NRP1) on HEK293 cells overexpressing NRP1 (UniProt O14786 22-923, limits assumed)
- T1 construct: whole, on cells
- protocol_text: flow cytometry, HEK293-NRP1 vs HEK293
Listed here are binders together with their documented 100 nM FACS (MFI Ratio).
measured_attribute: 100 nM FACS (MFI Ratio)

{"binder": "NRP1-107 (VHH) VHH: EVQLVESGGGLVQPGGSLRLSCAASGRTFSNSGMGWFRQAPGKEREFVAAISWNGGTTNYADSVKGRFTISADNSKNTAYLQMNSLKPEDTAVYYCATLGGTVSGSHWSYFYYMDVWGQGTLVTVSS", "result": 2.8}
{"binder": "NRP1-235 (antibody, IgG2, V domains shown) VH: EVQLLESGGGLVQPGGSLRLSCAASGFTFPNYAMTWVRQAPGKGLEWVSGISGSGGRIYYADSVKGRFTISRDNSKNTLYLQMNSLGAEDTAVYYCARARKFRELLRRNNYSNHYYMDVWGQGTLVTVSS VL: DIQMTQSPSSLSASVGDRVTITCRTSQSIGNYLNWYQQKPGKAPKLLIYGASKLQSGVPSRFSGSGSGTDFTLTISSLQPEDFATYYCQQGYSTPRTFGGGTKVEIK", "result": 0.8}
